Tested on: JAK1-dependent STAT6 phosphorylation in BEAS-2B human bronchial epithelial cells
assayRemarks: JAK1 pathway assay: IL-13 stimulated STAT6 phosphorylation in BEAS-2B cells
Type: cell-based
runConditions: Homo sapiens, BEAS-2B, BEAS-2B cells, IL-13 stimulation; read-out: IL-13 p-STAT6 BEAS-2B IC50
IC50 values by entry
measuredEndpoint: IC50 (nM)

> print(dat)
                                    compound  measuredendpoint  experimentalresult
 1  O=C(Nc1cn(CC(=O)N2CCC(N3CCOCC3)CC2)nc1-c1cc2ccccc2cc1OC(F)F)c1cnn2cccnc12              IC50                  17
 2  O=C1COc2cc(-c3n[nH]cc3NC(=O)c3cnn4cccnc34)c(OC(F)F)cc2N1              IC50                  67
 3  CN1CCC(Cn2cc(NC(=O)c3cnn4cccnc34)c(-c3cc4ccccc4cc3OC(F)F)n2)CC1              IC50                  31
 4  C[C@@H]1COc2cc(-c3n[nH]cc3NC(=O)c3cnn4cccnc34)c(OC(F)F)cc2N1              IC50                  12
 5  Cn1cc(NC(=O)c2cnn3cccnc23)c(-c2cc3ccccc3cc2OC(F)F)n1              IC50                  22
 6  O=C(Nc1cn(CC(=O)N2CCC(O)CC2)nc1-c1cc2c(cc1OC(F)F)NCCS2)c1cnn2cccnc12              IC50                 285
 7  O=C1CSc2cc(-c3n[nH]cc3NC(=O)c3cnn4cccnc34)c(OC(F)F)cc2N1              IC50                  27
 8  CC1CSc2cc(-c3nn(CC(=O)N4CC=CCC4)cc3NC(=O)c3cnn4cccnc34)c(OC(F)F)cc2N1 (single isomer, unassigned)              IC50                  15
 9  CCN1CCN(C(=O)Cn2cc(NC(=O)c3cnn4cccnc34)c(-c3cc4cn[nH]c4cc3OC(F)F)n2)CC1              IC50                  88
10  COc1cc2c(cc1-c1n[nH]cc1NC(=O)c1cnn3cccnc13)CCC2              IC50                   6

// data source = patent US11155557B2
